Test system: Plasmodium falciparum NF54 gametocytes
PROCEDURE_SUMMARY: viability index relative to DMSO control (fraction); higher = less gametocyte killing
MEASUREMENT_PARAMETERS: gametocyte stage: Stage V viability index; 12.5 µM; incubation time: 72 h
PARAMETER: viability index
No unit in the answer, only the number.

[[record]]
molecule = "COc1ccc(N2CCN(C(CNC(=O)CC(C)(C)C)c3ccc4c(c3)OCO4)CC2)cc1 (stereo not given)"
numeric_result = 0.727

[[record]]
molecule = "COc1ccc(CCNC(=O)c2cc(S(=O)(=O)N3CC(C)CC(C)C3)ccc2Sc2ccc(F)cc2)cc1OC (stereo not given)"
numeric_result = 0.987

[[record]]
molecule = "Oc1ccc(Cl)cc1CNc1nc2ccccc2[nH]1"
numeric_result = 0.736

[[record]]
molecule = "CC(C)(C)CC(C)(C)NCC(O)COc1ccc(Cl)cc1Cl (stereo not given)"
numeric_result = 0.11


Next molecule, please.
**Q:** Request the reported viability index associated with CCOc1ccc(-n2cc(-c3ccccc3)c3c(SCc4cc(C)ccc4C)ncnc32)cc1
**A:** 1.03

----------
Test system: Plasmodium falciparum NF54 gametocytes
PROCEDURE_SUMMARY: viability index relative to DMSO control (fraction); higher = less gametocyte killing
MEASUREMENT_PARAMETERS: gametocyte stage: Stage II viability index; 12.5 µM; incubation time: 72 h
Labels assigned by viability index range: Low: < 0.3; Mid: ≥ 0.3 and < 0.7; High: ≥ 0.7

Use the examples below as a reference point.
[[record]]
compound = "COc1cc(-c2nc(-c3ccc(Sc4ccccc4)cc3)c(-c3ccccc3)[nH]2)cc(OC)c1O"
category = "Low"

[[record]]
compound = "COc1cccc(Cn2c(Oc3ccccc3)nc3c2c(=O)n(C)c(=O)n3C)c1"
category = "High"

[[record]]
compound = "Nc1ccn(C2O[C@H](CO)[C@@H](O)[C@H]2O)c(=O)n1 (stereo partly specified)"
category = "High"

[[record]]
compound = "CCN(CC)c1cc(C)c2cc(NC(=O)c3cccc(OC)c3)ccc2n1"
category = "Mid"

[[record]]
compound = "COc1ccc(N2CCN(C(CNC(=O)CC(C)(C)C)c3ccc4c(c3)OCO4)CC2)cc1 (stereo unspecified)"
category = "High"

[[record]]
compound = "COc1ccc(OC)c(C2C3=C(CC(C)(C)CC3=O)N(c3ccc(Cl)c(Cl)c3)C3=C2C(=O)CC(C)(C)C3)c1"
category = "High"

[[record]]
compound = "N#Cc1nc(Cc2cccc3ccccc23)oc1N1CCN(C(c2ccccc2)c2ccccc2)CC1"
category = "High"

[[record]]
compound = "CN(C)CCCNc1c2ccccc2nc2ccccc12"
category = "Low"


**Q:** Which class is correct for the following compound? CCOC(=O)c1c(C)n(-c2ccccc2)c2ccc(OC(=O)c3cc(OC)c(OC)c(OC)c3)cc12
**A:** High

**Q:** Just checking, what class would you give O=C(Nc1cccc(-c2nc3ccccc3[nH]2)c1)c1cccc(NC(=O)c2ccco2)c1 here?
**A:** High

----------
Test system: Plasmodium falciparum NF54 gametocytes
PROCEDURE_SUMMARY: viability index relative to DMSO control (fraction); higher = less gametocyte killing
MEASUREMENT_PARAMETERS: gametocyte stage: Stage V viability index; 12.5 µM; incubation time: 72 h
Parameter: viability index. Scope: all listed entries.
Number only, no unit.

Worked cases, answers included:
[[record]]
molecule = "COc1cc(OC)cc(N2C(=O)N(Cc3ccc(C(C)(C)C)cc3)c3ccccc3S2(=O)=O)c1"
numeric_result = 0.662

[[record]]
molecule = "CCN(CC)CCCNc1nc(-c2ccc(Cl)cc2)nc2ccccc12"
numeric_result = 0.956


**Q:** Look at this molecule and give its reported viability index. CCOC(=O)c1cnc2ccc(CC)cc2c1O
**A:** 0.846

**Q:** Looking for the measured viability index of Cn1c(=O)c2cc(C(=O)NCCCN3CCCCCC3)sc2c2ccccc21 , can you help?
**A:** 0.725

**Q:** Could you tell me which viability index is on file for CC1CCCCN1CCCNC(=O)c1ccc2c(c1)sc1nc(-c3ccc(F)cc3)cn12 (stereo not given) ?
**A:** 1

----------
Each entry below carries its recorded viability index.
Test system: Plasmodium falciparum NF54 gametocytes
PROCEDURE_SUMMARY: viability index relative to DMSO control (fraction); higher = less gametocyte killing
MEASUREMENT_PARAMETERS: gametocyte stage: Stage V viability index; 12.5 µM; incubation time: 72 h
// no unit, no text: just the number

Answered examples (5):
[[record]]
compound = "FC(F)(F)c1cccc(Nc2nc3ccccc3nc2Nc2cccc(C(F)(F)F)c2)c1"
target_under_test = "Plasmodium falciparum NF54 gametocytes"
numeric_result = 0.0649

[[record]]
compound = "COc1ccc(C)c2sc(N(Cc3cccnc3)C(=O)c3ccc(C#N)cc3)nc12"
target_under_test = "Plasmodium falciparum NF54 gametocytes"
numeric_result = 1.01

[[record]]
compound = "CCCCCCOC(=O)C1=C(C)NC(=O)NC1c1ccccc1F (stereo not drawn)"
target_under_test = "Plasmodium falciparum NF54 gametocytes"
numeric_result = 1.13

[[record]]
compound = "COc1ccc(Nc2cc(C)nc(NCc3ccccc3)n2)cc1"
target_under_test = "Plasmodium falciparum NF54 gametocytes"
numeric_result = 0.481

[[record]]
compound = "N=c1n(CCN2CCCCC2)c2ccccc2n1CC(O)c1cccc(Br)c1 (stereo not drawn)"
target_under_test = "Plasmodium falciparum NF54 gametocytes"
numeric_result = 0.341


**Q:** Using the record for COc1ccc(C(O)(CCC(C)C)C(CN2CCOCC2)c2ccc(Cl)cc2)cc1 (stereo not drawn) , report its viability index.
**A:** 0.922

**Q:** Any idea what viability index was measured for COc1cccc(-c2nn(C)c3sc(C(=O)NCCN4CCN(c5ccccc5F)CC4)cc23)c1 ?
**A:** 0.835

**Q:** State the recorded viability index for this entry: COc1cccc(C2(C)Nc3ccccc3-c3nc4ccccc4n32)c1 (stereo not drawn)
**A:** 0.154

**Q:** Given CC(C)=CCN1CCC(C(=O)Nc2ccc(-c3nc4ccccc4[nH]3)cc2)CC1 , state its recorded viability index.
**A:** 0.967

**Q:** What value of measured viability index is listed for CC(O)(c1ccc(Cl)cc1)C(CN1CCCCC1)c1ccccc1 (stereo not drawn) ?
**A:** 0.802

**Q:** Entry Cc1cc(C)cc(Nc2cc(C)nc3nc(C(F)(F)F)nn23)c1 : reported viability index = ?
**A:** 0.835

**Q:** Field request: viability index | item: Clc1ccc2[nH]c3c(NCCCN4CCOCC4)ncnc3c2c1
**A:** 0.813

**Q:** Which viability index is reported for this compound? Oc1c2c(nc3cc(-c4ccccc4)nn13)CCCC2
**A:** 0.879

**Q:** What measured viability index goes with CCCCCCc1cc2cc(-c3nc4ccccc4[nH]3)c(=Nc3ccccc3C)oc2cc1O ?
**A:** 0.506

**Q:** # lookup: viability index of CCOc1cc(Br)c(C(C)NC(=O)c2cccc(OC)c2)cc1OCC (stereo not drawn)
**A:** 0.648

**Q:** Requested field: viability index. Item: Cc1cc(N2CCCC2)nc(Nc2ccc(NC(=O)CCc3ccccc3)cc2)n1
**A:** 0.13

**Q:** Request the reported viability index associated with CCCCc1ccc(NS(=O)(=O)c2cc3c4c(c2)CCN4C(=O)CC3)cc1
**A:** 1.07

----------
System: Plasmodium falciparum NF54 gametocytes
PROCEDURE_SUMMARY: viability index relative to DMSO control (fraction); higher = less gametocyte killing
MEASUREMENT_PARAMETERS: gametocyte stage: Stage II viability index; 12.5 µM; incubation time: 72 h
Binning rule for recorded viability index: bin A = under 0.5, bin B = from 0.5 up to 0.8, bin C = 0.8 and over

[[record]]
molecule = "Oc1c2c(nc3ccccc13)CCCC2"
category = "bin C"


**Q:** Lab note: which band did Brc1ccc(Nc2nc3ccccc3nc2Nc2ccc(Br)cc2)cc1 land in?
**A:** bin A

**Q:** Which bin, given its viability index, does COc1ccc(-c2nc(NC(=O)CS(=O)(=O)c3ccc(F)cc3)sc2C)cc1 occupy?
**A:** bin B

**Q:** Textbook exercise: identify the category of the molecule given here, CCOC(=O)c1cnc2c(C)cccc2c1Nc1ccc(C(C)=O)cc1 , according to its measured value.
**A:** bin C

**Q:** Assign a category based on measured viability index for CCN1CCN(c2c(C(=O)c3ccccc3)cnc3cc(OC)c(OC)cc23)CC1 and give only the class name.
**A:** bin C

**Q:** Form: Item = CC(C)(C)c1ccc(C2CC3=Nc4ccccc4N(C(=O)c4ccccc4Cl)C(c4ccc(F)cc4)C3=C(O)C2)cc1 (stereo unspecified) ; Class = ?
**A:** bin A

**Q:** Could you tell me which band CCOC(=O)c1cnc2ccc(Cl)cc2c1NCCCN(C)C belongs to?
**A:** bin B

**Q:** Lab log: CCN(CC)CCNc1ncnc2c1[nH]c1ccc(Cl)cc12 — assign viability index category
**A:** bin A
